Biological target: T1, human BMP9 (BMP9/Growth Differentiation Factor 2 [Homo sapiens], NP_057288) (human, UniProt Q9UK05 320-429, limits assumed)
T1 construct: cell assays use 'recombinant human BMP9 complex'; also called huBMP9; hBMP9
T1 sequence: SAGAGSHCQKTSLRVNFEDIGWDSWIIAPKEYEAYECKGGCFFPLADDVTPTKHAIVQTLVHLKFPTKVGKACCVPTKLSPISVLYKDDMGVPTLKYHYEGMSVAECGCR
Assay: MSD-SET solution equilibrium titration
Catalogue of binders with associated pKd
Lab note — pKd values are minus log10 of concentrations in M.

Antibody BMP9-8: MOR023793 (antibody, human IgG1, kappa, V domains shown, Fully human, phage display) VH: QVQLVQSGAEVKKPGASVKVSCKASGYTFTSYYMNWVRQAPGQGLEWMGWINPVQGNTNYAQKFQGRVTMTRDTSISTAYMELSRLRSEDTAVYYCARNYFDVWGQGTLVTVSS VL: DIQMTQSPSSLSASVGDRVTITCRASQTISNFLAWYQQKPGKAPKLLIYAASNLQSGVPSRFSGSGSGTDFTLTISSLQPEDFAVYYCQQLYAESITFGQGTKVEIKR: 9.92

Continue with the binder presented below.
[ask] Quick one: pKd for Antibody BMP9-7: MOR023787 (antibody, human IgG1, lambda, V domains shown, Fully human, phage display) VH: QVQLVESGGGLVKPGGSLRLSCAASGFTFSSAWMSWVRQAPGKGLEWVGHIKSKTYGGTIDYAAPVKGRFTISRDDSKNTLYLQMNSLKTEDTAVYYCARVGGYYGYGYAFAYWGQGTLVTVSS VL: SYELTQPLSVSVALGQTARITCSGDNIGDKYVSWYQQKPGQAPVLVIYDDNKRPSGIPERFSGSNSGNTATLTISRAQAGDEADYYCSSTASKSFNVFGGGTKLTVLG ?
[reply] 9.70
